- target.desc: recombinant soluble homotrimeric HA of A/South Carolina/1/18 (H1N1) (Influenza A virus A/South Carolina/1/18 (H1N1))
- protocol.details: trimeric HA microarray, transfection supernatant set 4
- condition.parameters: remark: other sources report otherwise
parameter: Trimeric HA Binding: RLU

A selection of reference data follows.
- binder: "TCN-534 (5249_B02) (antibody, V domains shown) VH: QVQLVQSGAEVKKPGSSVKVSCRESGGTFNGYTITWVRQAPGQGLEWMGGIIPMMGTVNYAQKLQGRVTITTDYFTKTAYMDLNNLRSEDTAMYYCVKIRYTGQQLLWGQGTLVTVSS VL: DIQMTQSPSTLSASIGDRVTITCRASQSIASWLAWYQQKPGKAPKLLIYEAVNLESGVPSRFSGSGSGTDFTLTISSLQPDDFATYFCQHYGTISQTFGGGTKVEIK"
  parameter: "Trimeric HA Binding: RLU"
  val: "11800 RLU"
- binder: "TCN-523 (5248_A17) (antibody, V domains shown) VH: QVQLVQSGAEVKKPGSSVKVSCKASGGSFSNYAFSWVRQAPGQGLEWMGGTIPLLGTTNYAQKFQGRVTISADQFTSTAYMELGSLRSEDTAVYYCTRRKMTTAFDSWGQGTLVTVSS VL: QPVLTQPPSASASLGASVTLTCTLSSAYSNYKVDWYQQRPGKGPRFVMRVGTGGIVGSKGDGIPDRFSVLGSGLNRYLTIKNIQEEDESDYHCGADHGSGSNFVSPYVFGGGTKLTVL"
  parameter: "Trimeric HA Binding: RLU"
  val: "23000 RLU"

The record that follows has no Trimeric HA Binding: RLU shown yet.
Task item: Find the recorded Trimeric HA Binding: RLU belonging to TCN-504 (3251_K17) (antibody, V domains shown) VH: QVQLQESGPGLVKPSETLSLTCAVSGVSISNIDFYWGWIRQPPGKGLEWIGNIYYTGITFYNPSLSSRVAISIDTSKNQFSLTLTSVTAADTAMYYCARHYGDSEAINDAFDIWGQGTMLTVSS VL: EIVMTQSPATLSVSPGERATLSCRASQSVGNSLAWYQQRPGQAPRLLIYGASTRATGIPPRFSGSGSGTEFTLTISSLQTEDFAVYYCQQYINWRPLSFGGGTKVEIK and report it.
Reply: 21700 RLU
